# assay-notes: Cmax in monkey at 2.5 mg/kg, po
# Assay type: ADME, organism-based, Macaca mulatta
# Design: dose 2.5 mg/kg, route oral
# run-parameters: rhesus monkey, in vivo
Reported values of Cmax for individual entries
measurement-label: Cmax (ng/mL)

INSERT INTO results (compound, reported_measurement) VALUES
  ('COC(=O)N[C@H](C(=O)N1CCC[C@H]1C(=O)Nc1ccc([C@H]2CC[C@H](c3ccc(NC(=O)[C@@H]4CCCN4C(=O)[C@@H](NC(=O)OC)C(C)C)cc3)N2c2ccc(F)cc2)cc1)C(C)C', 50),
  ('COC(=O)N[C@H](C(=O)N1CCC[C@H]1C(=O)Nc1ccc([C@@H]2CC[C@@H](c3ccc(NC(=O)[C@@H]4CCCN4C(=O)[C@@H](NC(=O)OC)C(C)C)cc3)N2c2ccc(C(C)(C)C)cc2)cc1)C(C)C', 290),
  ('COC(=O)N[C@H](C(=O)N1CCC[C@H]1C(=O)Nc1ccc([C@H]2CC[C@H](c3ccc(NC(=O)[C@@H]4CCCN4C(=O)[C@@H](NC(=O)OC)C(C)(C)C)cc3)N2c2ccc(F)cc2)cc1)C(C)(C)C', 120);

Data credit: ChEMBL document CHEMBL3124779
